Test system: Mouse CD8^+ T cell
Experiment: Second screen: IL-2 level of mouse CD8+ T cells
reported.metric: Mouse CD8^+ T cell IL-2 level changes after treatment (%)
The reply should contain only the number, in %.

**Q:** Look up Mouse CD8^+ T cell IL-2 level changes after treatment for this compound: CCCCCC/C=C/CCCCCCCCCC(=O)O [TVA, trans-vaccenic acid]
**A:** 193.6

**Q:** What do you get for "Cc1cn([C@H]2C[C@H](O)[C@@H](CO)O2)c(=O)[nH]c1=O" ?
**A:** 128.9

**Q:** Param item: OC[C@H]1OC(O)[C@H](O)[C@@H](O)[C@H]1O (stereo partly drawn) [D(+)-GALACTOSE ANHYDROUS]
**A:** 130.3

**Q:** Can you check "Nc1ccc(C(=O)O)cc1" next?
**A:** 145.2

**Q:** Consider next the compound "Nc1nc2nc[nH]c2c(=O)[nH]1" in the same way.
**A:** 150.8
